target: UniProt:P31422; test: Positive allosteric modulator activity at rat mGlu3 in human HEK cells co-expressing […] assessed as increase in by thallium flux preincubated for 2.5 mins followed by gluatamate addition by thallium flux assay
Sequence (P31422 whole entry): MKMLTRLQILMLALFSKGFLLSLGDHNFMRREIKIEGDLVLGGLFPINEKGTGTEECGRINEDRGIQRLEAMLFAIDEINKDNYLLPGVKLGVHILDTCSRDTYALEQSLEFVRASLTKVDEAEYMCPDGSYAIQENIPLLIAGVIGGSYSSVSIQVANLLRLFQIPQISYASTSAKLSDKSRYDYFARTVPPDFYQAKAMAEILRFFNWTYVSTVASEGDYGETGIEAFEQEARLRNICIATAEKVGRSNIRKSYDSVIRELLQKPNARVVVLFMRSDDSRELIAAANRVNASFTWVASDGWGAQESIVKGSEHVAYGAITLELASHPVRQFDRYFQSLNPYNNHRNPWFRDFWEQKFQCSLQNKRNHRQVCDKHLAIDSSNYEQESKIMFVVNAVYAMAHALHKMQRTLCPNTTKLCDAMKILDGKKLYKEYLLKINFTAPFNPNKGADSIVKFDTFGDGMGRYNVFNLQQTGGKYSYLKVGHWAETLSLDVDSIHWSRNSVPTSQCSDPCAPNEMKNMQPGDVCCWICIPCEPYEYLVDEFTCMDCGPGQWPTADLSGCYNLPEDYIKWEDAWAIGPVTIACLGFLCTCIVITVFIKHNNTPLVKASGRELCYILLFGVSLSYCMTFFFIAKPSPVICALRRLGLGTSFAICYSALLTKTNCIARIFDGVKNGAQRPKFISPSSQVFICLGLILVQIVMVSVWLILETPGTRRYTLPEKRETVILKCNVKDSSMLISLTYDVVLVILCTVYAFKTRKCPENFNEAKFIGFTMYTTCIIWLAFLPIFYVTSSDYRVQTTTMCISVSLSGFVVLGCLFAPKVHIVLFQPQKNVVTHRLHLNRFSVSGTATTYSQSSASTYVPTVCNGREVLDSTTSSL
pEC50: −log10 of the molar value.
endpoint.name: pEC50

Query: Determine its reported pEC50: FC(F)(F)c1nccc2cc(Nc3n[nH]c4ncccc34)ccc12
Result: < 5.00

---

assay: Drug uptake in plasma of haloperidol-induced catalepsy Sprague-Dawley rat model at 0.3 to 30 mg/kg,po; format: ADME, organism-based; conditions: in vivo, dose 0.3-30 mg/kg
endpoint.name: concentration (nM)
Answer format: numeric, nM implied, no suffix.

Query: Determine its reported concentration: FC(F)(F)c1nccc2cc(Nc3n[nH]c4ncccc34)ccc12
Result: 322
